- tested.on: recombinant human CRTH2 receptor (Homo sapiens)
- Construct: expressed in transfected cells
- Sequence (Q9Y5Y4 whole entry): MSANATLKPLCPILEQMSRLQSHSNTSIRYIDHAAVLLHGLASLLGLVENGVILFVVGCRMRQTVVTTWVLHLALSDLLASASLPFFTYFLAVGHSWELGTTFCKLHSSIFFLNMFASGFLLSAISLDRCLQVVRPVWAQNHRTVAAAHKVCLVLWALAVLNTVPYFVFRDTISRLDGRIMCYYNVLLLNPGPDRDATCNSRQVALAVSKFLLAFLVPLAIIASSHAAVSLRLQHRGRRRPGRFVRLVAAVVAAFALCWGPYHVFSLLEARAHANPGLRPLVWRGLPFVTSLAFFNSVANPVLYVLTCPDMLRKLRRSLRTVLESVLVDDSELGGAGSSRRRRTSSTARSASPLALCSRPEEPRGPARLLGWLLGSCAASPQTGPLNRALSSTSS
- assay.method.text: GTPγS binding assay
- Format: biochemical
- condition.label: +HSA; read-out: hDP2 GTPγS μM (+HSA)
measured.attribute: IC50

Example results:
| compound | IC50 |
| --- | --- |
| O=C(O)Cc1cccc(Oc2ccc(C(F)(F)F)cc2CN2C(=O)OC3c4ccccc4CC32)c1 (stereo not shown) [Compound 2-7] | < 0.3 µM |
| C[C@H]1[C@@H](c2ccccc2)OC(=O)N1Cc1cc(Br)ccc1Oc1cc(CC(=O)O)cc(C(F)(F)F)c1 [Compound 1-28] | < 0.3 µM |
| C[C@@H]1[C@H](c2ccccc2)OC(=O)N1Cc1cc(Br)ccc1Oc1cccc(CC(=O)O)c1 [Compound 1-49] | < 0.3 µM |
| COc1ccc(CC(=O)O)cc1Oc1ccc(Cl)cc1CN1CCOC1=O [Compound 1-86] | < 0.3 µM |
| C[C@@H]1[C@H](c2ccccc2)OC(=O)N1Cc1cc(C(F)(F)F)ccc1Oc1cc(CC(=O)O)ccc1OCc1ccccc1 [Compound 1-67] | 0.3 to 1 µM |
| C[C@H]1[C@@H](c2ccc(Cl)cc2)OC(=O)N1Cc1cc(Br)ccc1Oc1cccc(CC(=O)O)c1 [Compound 1-16] | > 1 µM |

State, in one line, measured IC50 of COc1ccc(CC(=O)O)cc1Oc1ccc(Cl)cc1CN1C(=O)O[C@@H](c2ccccc2)[C@H]1C [Compound 1-59]
< 0.3 µM

Origin of the recorded values: patent US8242145B2
